- method.summary: Pharmacokinetic test in mice
- Type: in vivo, ICR mice
- setup.conditions: mouse, in vivo, iv, plasma, i.v. (2.5 mg/kg)
experimental.readout: AUC(0-t) (µg·h/mL)
Report only the number, with the unit µg·h/mL understood.

### Prompt Give me measured AUC(0-t), please, for this molecule: `C=C1CCN(S(=O)(=O)Nc2ccc(F)c(Oc3ccc4ncn(CC(F)F)c(=O)c4c3)c2C#N)C1`
### Response 148

----------
- method.summary: Pharmacokinetic test in rats
- Assay type: in vivo, SD rats
- setup.conditions: rat, po, plasma, i.g. (10 mg/kg)
experimental.readout: AUC(0-t) (µg·h/mL)
Give just the numeric value; µg·h/mL need not be written.

### Prompt Input `CC=C1CN(S(=O)(=O)Nc2ccc(F)c(Oc3ccc4ncn(CC(F)F)c(=O)c4c3)c2C#N)C1` , output reported AUC(0-t).
### Response 1220

### Prompt Write down AUC(0-t) measured for item `C=C1CN(S(=O)(=O)Nc2ccc(F)c(Oc3ccc4ncn(CC(F)F)c(=O)c4c3)c2C#N)C1`
### Response 1030
